System: DNA
Experiment: Binding affinity to calf thymus DNA
Assay type: nucleic-acid assay
Details: Bos taurus
Readout label: K (×10³ /M)

1. COCCOCCOCCOCCOc1c(OC)ccc2cc3[n+](cc12)CCc1cc2c(cc1-3)OCO2
2. COc1ccc2cc3[n+](cc2c1OC)CCc1cc2c(cc1-3)OCO2
Req: Which gives the smaller K number: 1 or 2 ? Respond with the label that goes with your answer.
Resp: 1

The reported measurements were obtained from ChEMBL document CHEMBL3132853.
